// values below are reported pKi
Biological target: α2-binding sites (Rattus norvegicus, UniProt P22909)
Sequence (P22909 1-465): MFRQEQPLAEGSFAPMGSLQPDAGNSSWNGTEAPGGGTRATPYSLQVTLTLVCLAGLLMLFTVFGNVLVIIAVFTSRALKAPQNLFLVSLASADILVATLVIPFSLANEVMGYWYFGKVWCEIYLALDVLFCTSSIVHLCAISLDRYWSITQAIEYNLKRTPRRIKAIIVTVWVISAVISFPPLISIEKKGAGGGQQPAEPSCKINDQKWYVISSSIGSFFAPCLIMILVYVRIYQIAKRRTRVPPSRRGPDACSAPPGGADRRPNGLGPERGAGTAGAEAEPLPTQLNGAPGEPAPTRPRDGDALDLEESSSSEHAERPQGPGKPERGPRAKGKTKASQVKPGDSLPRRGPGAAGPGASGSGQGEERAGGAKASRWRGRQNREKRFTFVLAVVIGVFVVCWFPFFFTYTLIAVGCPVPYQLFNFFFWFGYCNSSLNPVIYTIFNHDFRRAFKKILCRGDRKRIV
Quick note: pKi values are minus log10 of concentrations in mol/L.

Recorded results for 2 compounds are shown here.
COC1(C2=NCCN2)COc2ccccc2O1 (single isomer, unassigned; (-)) [R] : 6.59
COC1(C2=NCCN2)COc2ccccc2O1 (racemic) [Example 1] : 9.10

Here is the next item to consider.
Provide α2-binding sites (Rattus norvegicus, UniProt P22909) pKi reading for COC1(C2=NCCN2)COc2ccccc2O1 (single isomer, unassigned) [S] . 9.44
